test system: H460 lung carcinoma; experiment: Cytotoxicity assay (MTT), 6 days; format: cell-based; conditions: Homo sapiens, NCI-H460, 144 h, 6 days of treatment, read-out: Toxicity 6d (IC 50, μM) H460
Label 1 when IC50 is strictly below 20 µM; at or above that, label -1.

structure_notation | classification
CCCc1cc(Cl)c(Cl)cc1OCCCCCOc1coc(CO)cc1=O | 1
CCCc1c(OCCCCCOc2coc(CO)cc2=O)ccc(Cl)c1Cl | 1
CCCc1c(OCCCCCCOc2coc(CO)cc2=O)ccc(Cl)c1Cl | 1
C/C=C/c1oc(CO)cc(=O)c1OCCCCCOc1ccc(Cl)c(Cl)c1CCC | -1
CCCc1c(OCCCCCOc2coc(C(=O)O)cc2=O)ccc(Cl)c1Cl | -1
O=c1cc(CO)occ1OCCCCCOc1cccc(Cl)c1 | -1
O=c1cc(COCc2ccccc2)occ1OCCCCCOc1ccc(Cl)c(Cl)c1 | 1
C/C=C/c1oc(C(=O)O)cc(=O)c1OCCCCCOc1ccc(Cl)c(Cl)c1CCC | -1
CCOc1ccccc1OCCCCCOc1coc(CO)cc1=O | -1
O=c1cc(CO)occ1OCCCCOc1ccc(Cl)c(Cl)c1 | 1
C/C=C/c1oc(C(=O)O)cc(=O)c1OCCCCCOc1ccccc1CCC | -1
C/C=C/c1oc(CO)cc(=O)c1OCCCCCOc1ccccc1CCC | -1
C/C=C/c1oc(CO)cc(=O)c1OCCCCCOc1ccc(Cl)cc1 | -1
O=c1cc(CO)occ1OCCCCCOc1ccc(Cl)cc1 | -1
O=C(O)c1cc(=O)c(OCCCCCOc2ccc(Cl)c(Cl)c2)co1 | -1
O=C(O)c1cc(=O)c(OCCCCCOc2ccc(Cl)cc2)co1 | -1
C/C=C/c1oc(C(=O)O)cc(=O)c1OCCCCCOc1cccc(Cl)c1 | -1
C/C=C/c1oc(C(=O)O)cc(=O)c1OCCCCCOc1ccc(Cl)c(Cl)c1 | -1
O=C(O)c1cc(=O)c(OCCCCCOc2cccc(Cl)c2)co1 | -1

Where do the numbers come from? From patent US20050054629A1.
